// data source = the Immune Epitope Database (IEDB)

Target: HLA-A*02:03
Test: IEDB peptide-MHC binding, purified MHC/competitive/radioactivity; filed as Kd, often an IC50 or EC50 that approximates it; bounds were set here for any values at or beyond the usual limits of such assays
Conditions: source organism: Vaccinia virus WR
pKd: −log10 of the molar value.
experimental_endpoint: pKd

Check out these entries, answers already filled in.
[[record]]
primary_sequence = "MMLVPLITV"
measurement_target = "HLA-A*02:03"
experimental_endpoint = "pKd"
value_reported = "≤ 4.28"

[[record]]
primary_sequence = "IASAPQQLCT"
measurement_target = "HLA-A*02:03"
experimental_endpoint = "pKd"
value_reported = "≤ 4.15"

[[record]]
primary_sequence = "TFMIITSTK"
measurement_target = "HLA-A*02:03"
experimental_endpoint = "pKd"
value_reported = "≤ 4.51"


Here's the next entry for you.
Q: What pKd value was documented for this sequence, VTKSSSWKDV ?
Result: ≤ 4.38

---

Target: HLA-A*03:01
Assay: IEDB peptide-MHC binding, purified MHC/competitive/radioactivity; filed as Kd, often an IC50 or EC50 that approximates it; bounds were set here for any values at or beyond the usual limits of such assays
Settings: source organism: Vaccinia virus WR
Measured pKd accompanies every entry in the list below.
Expect pKd as a plain number equal to -log10 of the molar concentration.

[[record]]
primary_sequence = "GLLDSIKMIY"
experimental_endpoint = "pKd"
value_reported = 7.34

[[record]]
primary_sequence = "TFMIITSTK"
experimental_endpoint = "pKd"
value_reported = 6.39

[[record]]
primary_sequence = "ALFMYYAKR"
experimental_endpoint = "pKd"
value_reported = 7.91

[[record]]
primary_sequence = "PVLKAMHDK"
experimental_endpoint = "pKd"
value_reported = 6.19

[[record]]
primary_sequence = "GMDYEEYKSK"
experimental_endpoint = "pKd"
value_reported = 7.53

[[record]]
primary_sequence = "NVFKAMETFK"
experimental_endpoint = "pKd"
value_reported = 7.57


Then this sequence:
Q: // lookup pKd for IVSLCPTKK
Result: 6.44

---

Target: HLA-A*23:01
Assay: IEDB peptide-MHC binding, purified MHC/competitive/radioactivity; filed as Kd, often an IC50 or EC50 that approximates it; bounds were set here for any values at or beyond the usual limits of such assays
Settings: source organism: SARS coronavirus Tor2
pKd: −log10 of the molar value.
Recorded pKd for the following sequences

[[record]]
primary_sequence = "FIAQSKGLY"
value_reported = "≤ 4.11"

[[record]]
primary_sequence = "ISAGFSLWIY"
value_reported = "≤ 4.54"


Q: Record lookup: for HLA-A*23:01, what pKd belongs to MSFLEKDAPY ?
Result: ≤ 4.15

Q: Enter reported pKd observed with HLA-A*23:01 for TYTEIEPKL
Result: ≤ 4.67

Q: pKd of TTTGIGYQPY on HLA-A*23:01?
Result: ≤ 4.15

---

Target: HLA-A*02:02
Assay: IEDB peptide-MHC binding, purified MHC/competitive/radioactivity; filed as Kd, often an IC50 or EC50 that approximates it; bounds were set here for any values at or beyond the usual limits of such assays
Settings: source organism: Vaccinia virus WR
Param label: returns criterion met when Kd < 200 nM, returns criterion not met otherwise, including exact equality.

Solved cases below.
[[record]]
primary_sequence = "TFMIITSTK"
class_name = "criterion not met"

[[record]]
primary_sequence = "ILSEKRKDTI"
class_name = "criterion not met"

[[record]]
primary_sequence = "AIFNNRNLA"
class_name = "criterion not met"

[[record]]
primary_sequence = "ILEYLYIMRV"
class_name = "criterion met"

[[record]]
primary_sequence = "AIFNNRNLAA"
class_name = "criterion not met"


Q: Determine if IIYSKAGNI shows Kd strictly lower than 200 nM.
Result: criterion not met

Q: A record lists LLEQLIENI . Is its Kd below 200 nM?
Result: criterion not met

---

Below: a set of entries, each annotated with reported Kd.
Target: HLA-A*02:06
Test: IEDB peptide-MHC binding, purified MHC/competitive/radioactivity; filed as Kd, often an IC50 or EC50 that approximates it; bounds were set here for any values at or beyond the usual limits of such assays
Settings: source organism: Vaccinia virus WR

[[record]]
primary_sequence = "RTWKVLSIM"
value_reported = "≥ 34000 nM"


Q: Record request: Kd value, item ILEYLYIMRV
Result: 134 nM

Q: Entry under review: KVFSFWLLCK . Reported Kd?
Result: 8660 nM

Q: Consider the sequence TFMIITSTK and give its measured Kd.
Result: ≥ 77100 nM

Q: Consider the sequence IIYSKAGNI and give its measured Kd.
Result: 13700 nM

Q: Which Kd reading was recorded for the sequence FITVLTSVDI ?
Result: 1270 nM

Q: Using the record for IASAPQQLCT , report its Kd.
Result: 8320 nM

---

Molecular target: HLA-A*03:01
Experiment: IEDB peptide-MHC binding, purified MHC/competitive/radioactivity; filed as Kd, often an IC50 or EC50 that approximates it; bounds were set here for any values at or beyond the usual limits of such assays
Conditions: source organism: Vaccinia virus WR
experimental_endpoint: pKd
Scale: negative log10 of molar concentration, which is what pKd denotes.

[[record]]
primary_sequence = "KTLDISSFY"
experimental_endpoint = "pKd"
value_reported = 7.72

[[record]]
primary_sequence = "KSIIIPFIAY"
experimental_endpoint = "pKd"
value_reported = 6.01


Q: Give its pKd value. Item: MLFTSTNDK
Result: 8.26

Q: Entry PLFDFVNEK : reported pKd = ?
Result: 5.71

Q: Find the recorded pKd belonging to FLRSIAMLK and report it.
Result: 8.69

Q: What value of pKd has been recorded for this entry: NMVSDTIMKR
Result: 5.38

Q: Which pKd value is on record for YLLVKWIRK ?
Result: 8.12

---

Recorded measurements of pKd, one per entry
Biological target: HLA-A*02:02
Experiment: IEDB peptide-MHC binding, purified MHC/competitive/radioactivity; filed as Kd, often an IC50 or EC50 that approximates it; bounds were set here for any values at or beyond the usual limits of such assays
Details: source organism: Vaccinia virus WR
Scale: pKd equals -log10([C]), with [C] in mol/L.

[[record]]
primary_sequence = "VTFINDYANL"
measurement_target = "HLA-A*02:02"
experimental_endpoint = "pKd"
value_reported = 7.00

[[record]]
primary_sequence = "IVVALSSLV"
measurement_target = "HLA-A*02:02"
experimental_endpoint = "pKd"
value_reported = 7.57

[[record]]
primary_sequence = "TISWMMKLGI"
measurement_target = "HLA-A*02:02"
experimental_endpoint = "pKd"
value_reported = 5.11

[[record]]
primary_sequence = "AISAVYFKA"
measurement_target = "HLA-A*02:02"
experimental_endpoint = "pKd"
value_reported = 8.44

[[record]]
primary_sequence = "SALMTLDDLA"
measurement_target = "HLA-A*02:02"
experimental_endpoint = "pKd"
value_reported = 6.68


Q: Param item = KQYDSTDFKM ; retrieve measured pKd.
Result: 8.08

Q: Please give the measured pKd for this sequence: HTNHSDISM
Result: 5.06

Q: Quick one: pKd of DMLLNVQTLI ?
Result: 7.38

Q: What does the record list as pKd for YLSGTDDEVI ?
Result: 8.20

Q: Need pKd, item FIISTLNKIL
Result: 5.29

Q: # query: pKd of entry AVIPFDDIV
Result: 6.50

Q: Which pKd reading was recorded for the sequence TVGMLIYSM ?
Result: 6.31

Q: I would be grateful if you could share the reported pKd for TLNTLITLIL .
Result: 6.82

---

Biological target: HLA-A*02:06
Assay: IEDB peptide-MHC binding, purified MHC/competitive/radioactivity; filed as Kd, often an IC50 or EC50 that approximates it; bounds were set here for any values at or beyond the usual limits of such assays
Settings: source organism: Vaccinia virus WR
# key: entry, value: Kd
API: value field is a number in µM; no unit string.

// known answers, use as guide
[[record]]
primary_sequence = "QLLKILDNL"
value_reported = 0.135

[[record]]
primary_sequence = "IIMAINVFT"
value_reported = 0.0103

[[record]]
primary_sequence = "IVVALSSLV"
value_reported = 0.00823

[[record]]
primary_sequence = "EVERLMELPV"
value_reported = 3.63

[[record]]
primary_sequence = "NITRLEVIGL"
value_reported = 0.197

[[record]]
primary_sequence = "FIISTLNKIL"
value_reported = 0.0081

[[record]]
primary_sequence = "LLEQLIENI"
value_reported = 0.539

[[record]]
primary_sequence = "AISAVYFKA"
value_reported = 0.149

[[record]]
primary_sequence = "VQLSNNKYVL"
value_reported = 0.17

[[record]]
primary_sequence = "SALMTLDDLA"
value_reported = 0.193


Q: Suppose we examine the sequence VLEKKVCAI ; what Kd value has been reported?
Result: 3.39

Q: Given the entry AVIPFDDIV , report its measured Kd.
Result: 0.0424

Q: Give the measured Kd of HTNHSDISM .
Result: 1.2
